B1: library; a variant is named by its letters at N, in order (parent)
chain: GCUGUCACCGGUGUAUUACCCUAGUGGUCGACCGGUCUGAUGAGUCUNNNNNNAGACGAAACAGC

variants of: B1; experiment: normalized RNA/DNA level without ligand (relative to sTRSVctl = 100) (log10 (% of sTRSVctl)); ligand: hypoxanthine (xanthine aptamer); higher = less ribozyme self-cleavage, higher mRNA level; conditions: HEK293T, reporter: mCherry (pCS4076), ligand present: no
normalized RNA/DNA level without ligand (log10) overview
readout: normalized RNA/DNA level without ligand (log10)

{"variant name": "AGGUUC", "reported measurement": 1.83}
{"variant name": "GCGCUC", "reported measurement": 1.64}
{"variant name": "AGUGGA", "reported measurement": 1.62}
{"variant name": "UCGCUA", "reported measurement": 1.72}
{"variant name": "GCAGAA", "reported measurement": 1.7}
{"variant name": "CUUUAU", "reported measurement": 1.78}
{"variant name": "AGCAUU", "reported measurement": 1.86}
{"variant name": "GUCGUU", "reported measurement": 1.89}
{"variant name": "UGGACG", "reported measurement": 1.68}
